# target or system: recombinant, human protein tyrosine phosphatase (PTP) 1B (hPTP1B) (Homo sapiens, UniProt P18031)
# Sequence (P18031 whole entry): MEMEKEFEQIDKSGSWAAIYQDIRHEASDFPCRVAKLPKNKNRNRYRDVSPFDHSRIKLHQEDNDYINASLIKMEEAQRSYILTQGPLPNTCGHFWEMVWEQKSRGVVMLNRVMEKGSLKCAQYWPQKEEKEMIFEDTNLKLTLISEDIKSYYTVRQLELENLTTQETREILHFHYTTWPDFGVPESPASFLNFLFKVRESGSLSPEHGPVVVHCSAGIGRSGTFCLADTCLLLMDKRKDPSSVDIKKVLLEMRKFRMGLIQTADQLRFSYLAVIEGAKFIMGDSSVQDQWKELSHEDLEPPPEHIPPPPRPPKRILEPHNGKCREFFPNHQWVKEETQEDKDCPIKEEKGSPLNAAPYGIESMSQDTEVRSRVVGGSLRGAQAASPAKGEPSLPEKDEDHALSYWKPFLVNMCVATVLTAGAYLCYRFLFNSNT
# method description: Inhibition of tri-phosphorylated insulin receptor dodecaphosphopeptide dephosphorylation by hPTP1B
# condition context: 50 μM IR triphosphopeptide substrate, 5 min preincubation and 5 min reaction at 37° C., malachite green-ammonium molybdate phosphate detection
pIC50: −log10 of the molar value.
Collected pIC50 values appear next to each entry.

{"sample smiles": "O=C(O)COc1c(-c2cccc(Cl)c2)cc(C(=O)NCCCCCCc2ccccc2)cc1-c1cccc(Cl)c1", "pIC50": 6.22}
{"sample smiles": "CN(CCCCCCCCc1ccccc1)C(=O)c1cc(Br)c(OCC(=O)O)c(-c2cccc(C(F)(F)F)c2)c1", "pIC50": 6.57}
{"sample smiles": "O=C(O)COc1c(-c2ccccc2)cc(C(c2ccccc2)(c2ccccc2)c2ccccc2)cc1-c1ccccc1", "pIC50": 6.20}
{"sample smiles": "O=C(O)COc1c(-c2cccc(Cl)c2)cc(C(=O)NCCCCCCCCSc2nc3ccccc3o2)cc1-c1cccc(Cl)c1", "pIC50": 6.48}
{"sample smiles": "CN(CCCCCCCCc1ccccc1)C(=O)c1cc(-c2ccc(F)c(Cl)c2)c(OCC(=O)O)c(-c2ccc(F)c(Cl)c2)c1", "pIC50": 6.70}
{"sample smiles": "CCCCCCCCCCCCNC(=O)c1cc(-c2cccc(C(F)(F)F)c2)c(OCC(=O)O)c(-c2ccccc2F)c1", "pIC50": 6.73}
{"sample smiles": "CCCCCCCCCCCCCCCCNc1c(Nc2cc(-c3ccccc3)c(OCC(=O)O)c(-c3ccccc3)c2)c(=O)c1=O", "pIC50": 7.77}
{"sample smiles": "CN(CCCCCCCCc1ccccc1)C(=O)c1cc(-c2cccc(F)c2)c(OCC(=O)O)c(-c2cccc(F)c2)c1", "pIC50": 5.99}
{"sample smiles": "O=C(O)COc1c(-c2ccccc2)cc(-c2c3ccccc3cc3sc4ccccc4c23)cc1-c1ccccc1", "pIC50": 6.93}
{"sample smiles": "O=C(O)COc1c(-c2cccc(C(F)(F)F)c2)cc(C(=O)NCCCCCCOCc2ccc(F)cc2F)cc1-c1cccc(C(F)(F)F)c1", "pIC50": 6.14}
{"sample smiles": "O=C(O)COc1c(-c2cccc(Cl)c2)cc(C(=O)NCCCCCCCCc2ccccc2)cc1-c1cccc(Cl)c1", "pIC50": 6.95}
{"sample smiles": "CCCCCCCCCCCCNC(=O)c1cc(Br)c(OCC(=O)O)c(-c2cccc(Cl)c2)c1", "pIC50": 6.74}
{"sample smiles": "CCCCCCCCOc1cc(-c2cccc(OC)c2)c(OCC(=O)O)c(-c2cccc(OC)c2)c1", "pIC50": 6.60}
{"sample smiles": "CCCCCCCCCCCCCc1cc(-c2ccccc2)c(OCC(=O)O)c(-c2ccccc2)c1", "pIC50": 7.74}
{"sample smiles": "CCCCCCCCCCCCCCOc1cc(-c2ccccc2)c(OCC(=O)O)c(-c2ccccc2)c1", "pIC50": 7.55}

* * *

Collected melting point values appear next to each entry.

{"compound": "O=C(O)COc1c(-c2ccccc2)cc(C(c2ccccc2)(c2ccccc2)c2ccccc2)cc1-c1ccccc1 [Example 174]", "melting point": "211 to 214 °C"}
{"compound": "O=C(O)COc1c(-c2cccc(Cl)c2)cc(C(=O)NCCCCCCCCOCc2ccc(Cl)cc2)cc1-c1cccc(Cl)c1 [Example 90]", "melting point": "128 to 131 °C"}
{"compound": "CCCCCCCCCCCCNC(=O)c1cc(-c2ccccc2)c(OCC(=O)O)c(-c2ccccc2)c1 [Example 8]", "melting point": "150 to 153 °C"}
{"compound": "COc1ccc(-c2cc(C(=O)N(CCc3ccccc3)Cc3ccccc3)cc(-c3cccc(C(F)(F)F)c3)c2OCC(=O)O)cc1 [Example 67]", "melting point": "> 82 °C (dec.)"}
{"compound": "O=C(O)COc1c(-c2cc(Cl)cc(Cl)c2)cc(C(=O)NCCCCCCCCc2ccccc2)cc1-c1cc(Cl)cc(Cl)c1 [Example 160]", "melting point": "139 to 149 °C"}
{"compound": "O=C(O)COc1c(-c2cccc(Cl)c2)cc(C(=O)NCCc2ccccn2)cc1-c1cccc(Cl)c1 [Example 52]", "melting point": "> 94 °C (dec.)"}
